tested on: H1299; assay: IC50 studies, monolayer cell culture assay (CellTiter-Glo cell viability, 72 hours); assay type: cell-based; conditions: H1299, lung, Test I, read-out: IC50 Test(I) Avg
measurement.name: IC50 (µM)

>  <compound>
CC1(C)CCC(C)(C)c2cc(NC(=O)c3ccc(C(=O)O)cc3)ccc21.O=C(O)c1cc(O)c(O)c(O)c1

>  <units.symbol>
µM

>  <measured.result>
11.2

$$$$
>  <compound>
CC1(C)CCC(C)(C)c2cc(NC(=O)c3ccc(C(=O)O)cc3)ccc21.O=C(O)c1ccccc1-c1ccccc1C(=O)O

>  <units.symbol>
µM

>  <measured.result>
40.8

$$$$
>  <compound>
CC1(C)CCC(C)(C)c2cc(NC(=O)c3ccc(C(=O)O)cc3)ccc21.NC(=O)c1cccnc1 [TAM-nicotinamide]

>  <units.symbol>
µM

>  <measured.result>
49.7

$$$$
>  <compound>
CC1(C)CCC(C)(C)c2cc(NC(=O)c3ccc(C(=O)O)cc3)ccc21.O=C(O)c1ccc(-c2ccccc2)cc1

>  <units.symbol>
µM

>  <measured.result>
65.5

$$$$
